These entries and their values trace back to PubChem BioAssay (NCATS).

Form field: activity change % (negative = inhibition) (one value per entry).
Molecular target: Thyroid hormone receptor beta (Homo sapiens)
Test: qHTS assay for small molecule antagonists of thyroid hormone receptor beta signaling (AID 588547);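 note: cells stimulated with 0.4 nM T3 agonist during compound exposure; series mostly up to about 77 µM; % is set by controls: 0 for no effect and ±100 for the full control effect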
Details: TR-UAS-bla HEK293, beta-lactamase ratio, antagonist mode, 18 h
Inconclusive results are not listed.
endpoint: activity change % (negative = inhibition) (%)

| compound smiles | study target | value observed |
| --- | --- | --- |
| CC(=O)Oc1ccc(C(c2ccc(OC(C)=O)cc2)c2ccccn2)cc1 | Thyroid hormone receptor beta (Homo sapiens) | 5.36 |
| Cc1cc(=O)n(-c2ccccc2)n1C | Thyroid hormone receptor beta (Homo sapiens) | 5.56 |
| O=C(O)CCCCC(=O)O | Thyroid hormone receptor beta (Homo sapiens) | 0.209 |
| COC1=CC(=O)C[C@@H](C)[C@]12Oc1c(Cl)c(OC)cc(OC)c1C2=O | Thyroid hormone receptor beta (Homo sapiens) | -47.5 |
| CN(C)C(=S)SC(=S)N(C)C | Thyroid hormone receptor beta (Homo sapiens) | 10.8 |
| CC(O)(P(=O)(O)O)P(=O)(O)O | Thyroid hormone receptor beta (Homo sapiens) | -8.4 |
